Biological target: GLP-1R (Homo sapiens)
Sequence (P43220 24-463): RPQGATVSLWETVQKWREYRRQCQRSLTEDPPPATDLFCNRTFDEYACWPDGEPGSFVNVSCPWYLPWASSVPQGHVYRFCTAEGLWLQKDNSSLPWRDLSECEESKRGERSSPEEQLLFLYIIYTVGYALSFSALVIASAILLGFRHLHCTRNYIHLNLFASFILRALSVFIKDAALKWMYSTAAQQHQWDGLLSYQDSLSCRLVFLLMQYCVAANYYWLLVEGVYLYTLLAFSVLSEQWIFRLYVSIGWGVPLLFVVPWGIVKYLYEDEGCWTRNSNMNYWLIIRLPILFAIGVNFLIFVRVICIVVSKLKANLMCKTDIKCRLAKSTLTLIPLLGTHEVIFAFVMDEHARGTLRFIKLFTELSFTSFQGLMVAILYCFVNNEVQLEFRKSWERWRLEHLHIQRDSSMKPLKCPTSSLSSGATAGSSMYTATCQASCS
Experiment: GLP-1R activation: cAMP increase in CHO cells stably expressing GLP-1R
Type: cell-based
Conditions: cAMP increase, CHO cells stably expressing GLP-1R, 10 point dose response, 30 minutes incubation; read-out: EC50
Recorded measurements of EC50, one per entry
readout: EC50

* COCCn1c(Cc2ccc(-c3cccc(OCc4ccc(C#N)cc4F)n3)cc2F)nc2c(F)cc(C(=O)O)cc21 | 2.19 nM
* N#CCC1(Cn2c(Cc3ccc(-c4cccc(OCc5ccc(C#N)cc5F)n4)c(F)c3)nc3ccc(C(=O)O)cc32)CC1 | 0.43 nM
* COCCn1c(Cc2ccc(-c3cccc(OCc4ccc(Cl)cc4OC)n3)cc2F)nc2ccc(C(=O)O)cc21 | 2.2 nM
* N#Cc1ccc(COc2nccc(-c3cc(F)c(Cc4nc5ccc(C(=O)O)cc5n4CC45CC(CO4)C5)cc3F)n2)c(F)c1 | 2.05 nM
* CNC(=O)C(Cn1c(Cc2ccc(-c3cccc(OCc4ccc(C#N)cc4F)n3)cc2F)nc2ccc(C(=O)O)cc21)OC (single isomer, unassigned) [Example 330] | 17.2 nM
* CO[C@H]1COC[C@H]1n1c(Cc2cc(F)c(-c3cccc(OCc4ccc(C#N)cc4F)n3)cc2F)nc2ccc(C(=O)O)cc21 (single isomer, unassigned) [Example 891] | 0.25 nM
* N#Cc1ccc(COc2nccc(-c3cc(F)c(Cc4nc5c(F)cc(C(=O)O)cc5n4Cc4ncco4)cc3F)n2)c(F)c1 | 0.55 nM
* N#Cc1ccc(COc2cccc(-c3cc(=O)n(Cc4nc5ccc(C(=O)O)cc5n4C[C@@H]4CCO4)cc3F)n2)c(F)c1 | 0.12 nM
* N#Cc1ccc(COc2nc(-c3ccc(Cc4nc5ccc(C(=O)O)cc5n4C[C@@H]4CCO4)c(F)c3)ccc2F)c(F)c1 | 0.51 nM
* COCCn1c(Cc2ccc(-c3ccnc(OCc4ccc(C#N)cc4F)n3)cc2F)nc2ccc(C(=O)O)cc21 | 29.3 nM
* COCCn1c(Cc2ccc(-c3cccc(OCc4ccc(C#N)cc4F)n3)cc2C#CC2CC2)nc2ccc(C(=O)O)cc21 | 1.43 nM
* COCCn1c(Cc2ccc(-c3cccc(OCc4ccc(C5(C#N)CC5)cc4)n3)cc2F)nc2ccc(C(=O)O)cc21 | 51.4 nM
* COCCn1c(Cc2cc(F)c(-c3cccc(OCc4ccc(Cl)nc4F)n3)cc2F)nc2ccc(C(=O)O)cc21 | 19.8 nM

###

Assay: Microsomal stability, human liver microsomes (predicted hepatic clearance)
Conditions: predicted from in vitro microsomal stability data
Recorded measurements of Predicted Hepatic Clearance (Pred. Cl.), one per entry
readout: Predicted Hepatic Clearance (Pred. Cl.) (mL/min/kg)

* COCCn1c(Cc2ccc(-c3cccc(OCc4ccc(C#N)cc4F)n3)cc2NS(C)(=O)=O)nc2ccc(C(=O)O)cc21 | 12.3
* N#Cc1ccc(COc2cccc(-c3cc(F)c(Cc4nc5ccc(C(=O)O)cc5n4CC45CC(C#N)(CO4)C5)cc3F)n2)c(F)c1 | 8.67
* COCCn1c(Cc2cc(F)c(-c3ccc(F)c(OCc4ccc(C(F)F)cc4F)n3)cc2F)nc2c(F)cc(C(=O)O)cc21 | 1.83
* N#Cc1ccc(COc2ccc(F)c(-c3ccc(Cc4nc5ccc(C(=O)O)cc5n4C[C@@H]4CCO4)c(F)c3)n2)c(F)c1 | 7.17
* COCCn1c(Cc2ccc(-c3cccc(OCC(=O)c4ccccc4)n3)cc2F)nc2ccc(C(=O)O)cc21 | 16.3
* COCCn1c(Cc2ccc(-c3cccc(O[C@@H](C)c4ccccc4)n3)cc2F)nc2ccc(C(=O)O)cc21 | 13.2
* N#Cc1ccc(COc2cccc(-c3ccc(Cc4nc5ccc(C(=O)O)cc5n4CCOC(F)(F)F)c(F)c3)n2)c(F)c1 | 4.33

Where do the numbers come from? From patent US11702404B2.
